Every entry's value here was drawn from paper PMC12276312.

Target: MxaF/MxaJ complex (Methylorubrum extorquens)
Sequence (P16027 28-626): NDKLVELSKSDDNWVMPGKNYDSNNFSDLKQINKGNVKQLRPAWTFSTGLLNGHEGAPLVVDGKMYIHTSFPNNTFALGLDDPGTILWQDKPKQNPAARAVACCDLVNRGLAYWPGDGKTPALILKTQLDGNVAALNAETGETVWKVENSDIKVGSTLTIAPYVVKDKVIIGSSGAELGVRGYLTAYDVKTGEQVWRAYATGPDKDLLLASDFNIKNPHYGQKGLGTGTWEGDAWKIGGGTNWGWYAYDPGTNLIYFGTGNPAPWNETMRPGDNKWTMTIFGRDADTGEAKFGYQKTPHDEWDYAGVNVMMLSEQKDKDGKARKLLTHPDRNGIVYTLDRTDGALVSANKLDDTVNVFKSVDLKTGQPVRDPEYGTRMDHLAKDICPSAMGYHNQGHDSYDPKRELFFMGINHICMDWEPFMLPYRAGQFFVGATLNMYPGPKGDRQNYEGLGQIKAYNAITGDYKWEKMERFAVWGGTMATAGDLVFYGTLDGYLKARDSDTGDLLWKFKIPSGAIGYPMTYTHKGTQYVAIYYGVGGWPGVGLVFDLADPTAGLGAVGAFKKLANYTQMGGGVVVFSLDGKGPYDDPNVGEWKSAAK
Sequence (P16028 26-300 partner): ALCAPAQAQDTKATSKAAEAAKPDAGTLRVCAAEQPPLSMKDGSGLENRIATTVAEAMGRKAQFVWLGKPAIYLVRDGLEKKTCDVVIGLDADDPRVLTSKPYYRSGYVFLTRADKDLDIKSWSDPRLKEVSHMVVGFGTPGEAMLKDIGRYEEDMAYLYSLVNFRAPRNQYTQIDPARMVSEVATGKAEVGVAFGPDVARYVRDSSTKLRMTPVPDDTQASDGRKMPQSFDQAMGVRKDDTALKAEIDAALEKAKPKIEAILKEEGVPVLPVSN
Test: isothermal titration calorimetry
pKd: −log10 of the molar value.
observationType: pKd

INSERT INTO assay_data (molecule, tgt, observationtype, reported) VALUES
  ('O=C(O)c1cc(C(=O)O)c2c(n1)C(=O)C(=O)c1cc(C(=O)O)[nH]c1-2 [PQQ]', 'MxaF/MxaJ complex (Methylorubrum extorquens)', 'pKd', '~7.11');
